Answer each item with its documented Changes of body weight, D-21266(4 × 46.4 mg/kg p.o.) AUC, day 11.
conditions: Table 2; rat; AUC to day 11; compared with D-21266 alone (D-21266 4 × 46.4 mg/kg p.o. alone); same i.p. doses as c1
Marks after values point to notes of the source that are not given here.

Below, 3 molecules whose answers are already recorded.
{"columns": ["molecule", "reading"],
 "data": [
  ["CN1CCC(=C2c3ccccc3C=Cc3ccccc32)CC1", 20.6],
  ["CCN(CC)CCNC(=O)c1cc(Cl)c(N)cc1OC [Metoclopramide, metoclopramide]", 49.4],
  ["O=c1[nH]c2ccccc2n1C1CCN(CCCC(c2ccc(F)cc2)c2ccc(F)cc2)CC1 [Pimozide, pimozide]", "67.5**"]
]}

# evaluate next
Prompt: Recorded Changes of body weight, D-21266(4 × 46.4 mg/kg p.o.) AUC, day 11 of CCCCCCCCCCCCCCCCCCOP(=O)([O-])OC1CC[N+](C)(C)CC1 , please.
Completion: 37.1

Where these numbers come from: patent US6576624B1
